Tested on: Human immunodeficiency virus 1
Assay: Antiviral activity against HIV-1 infected in FlpIn-HEK293 cells assessed as activation of long terminal repeat driven gene expression incubated for 72 hrs by luciferase based cellular assay
Assay type: functional, organism-based
Conditions: Human immunodeficiency virus 1, HEK293, 72 h
Test Readout: pEC50
Answers are plain numbers, as −log10 of the molar value.

Use these answered entries as a reference point.
| Compound | pEC50 |
| --- | --- |
| Cc1cnc(NC(=O)N2CCN(c3cccc(C#N)c3)CC2)s1 | 6.64 |
| Cc1cnc(NC(=O)N2CCN(c3ccc(C)c(Cl)c3)CC2)s1 | 6.33 |

Would you mind listing pEC50 for each of the following compounds?
1. Cc1cc(OC2CCN(C(=O)Nc3ncc(Cl)s3)CC2)ccc1Cl
2. Cc1cc(N2CCN(C(=O)Nc3ncc(Cl)s3)CC2)ncc1C#N
3. Cc1cc(N(C)C2CCN(C(=O)Nc3ncc(Cl)s3)C2)ccc1Cl (stereo unspecified)

**A:**
1. 4.70
2. 6.34
3. 4.96
